Source listed as patent US12336981B2.

- TESTED TARGET: NAMPT (Homo sapiens, UniProt P43490)
- Construct: His tag; host or cells: E. coli
- Sequence (P43490 whole entry): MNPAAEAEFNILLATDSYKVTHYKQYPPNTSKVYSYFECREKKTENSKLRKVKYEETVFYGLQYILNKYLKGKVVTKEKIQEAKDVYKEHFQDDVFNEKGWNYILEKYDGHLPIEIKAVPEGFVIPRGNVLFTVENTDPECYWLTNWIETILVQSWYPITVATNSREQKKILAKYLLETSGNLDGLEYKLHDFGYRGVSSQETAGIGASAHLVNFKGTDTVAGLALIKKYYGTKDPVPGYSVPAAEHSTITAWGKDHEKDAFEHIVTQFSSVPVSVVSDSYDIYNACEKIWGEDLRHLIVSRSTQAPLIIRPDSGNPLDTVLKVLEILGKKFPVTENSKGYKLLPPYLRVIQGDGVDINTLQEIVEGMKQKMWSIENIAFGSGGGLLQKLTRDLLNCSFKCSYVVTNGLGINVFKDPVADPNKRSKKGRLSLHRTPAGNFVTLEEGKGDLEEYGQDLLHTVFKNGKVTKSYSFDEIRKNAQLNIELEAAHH
- ASSAY COMMENT: Biochemical inhibition assay: NAMPT enzymatic reaction, NMN quantified by mass spectrometry
- RUN CONDITIONS: NAMPT enzymatic reaction; read-out: Biochem IC50
pIC50: −log10 of the molar value.
Everything with pIC50 lower than 8 is Condition not met; everything else, including exactly 8, is Condition met.

Worked examples, 3 compounds total:
| MOLECULE | GROUP LABEL |
| --- | --- |
| CC(=O)c1ccccc1S(=O)(=O)c1ccc(CNC(=O)c2cnc3[nH]ncc3c2)cc1 | Condition met |
| Cc1ccc(S(=O)(=O)c2ccc(CNC(=O)c3cc4ccncc4s3)cc2)cc1F | Condition met |
| O=C(NCc1ccc(S(=O)(=O)c2cccc(Cl)c2)cc1)c1cc2cnccc2[nH]1 | Condition met |

Input: In plain terms: is recorded pIC50 at least 8 for O=C(NCc1ccc(S(=O)(=O)c2ccccc2)cc1)N1CCc2[nH]ncc2C1 ?
Output: Condition not met

Input: In plain terms: is recorded pIC50 at least 8 for Cc1ccc(Cl)cc1S(=O)(=O)c1ccc(CNC(=O)c2cnc3[nH]ncc3c2)cc1 ?
Output: Condition not met

----------
- TESTED TARGET: NAMPT (Homo sapiens, UniProt P43490)
- Construct: His tag; host or cells: E. coli
- ASSAY COMMENT: Biochemical inhibition assay: NAMPT enzymatic reaction, NMN quantified by mass spectrometry
- RUN CONDITIONS: NAMPT enzymatic assay; read-out: Biochem IC50
MEASUREMENT LABEL: log10 IC50 (log10 of the value in nM)
On a log10 scale: recorded IC50, unit nM.

| MOLECULE | TESTED TARGET | MEASUREMENT LABEL | MEASURED RESULT |
| --- | --- | --- | --- |
| CC(C)COc1cccc(S(=O)(=O)c2ccc(CNC(=O)c3cc4ccncc4o3)cc2)c1 | NAMPT (Homo sapiens, UniProt P43490) | log10 IC50 | 1.17 |
| COc1ccc(OC(F)(F)F)cc1S(=O)(=O)c1ccc(CNC(=O)c2ccc3nccn3c2)cc1 | NAMPT (Homo sapiens, UniProt P43490) | log10 IC50 | 1.83 |
| O=C(NCc1ccc(S(=O)(=O)c2ccco2)cc1)c1ccc2nccn2c1 | NAMPT (Homo sapiens, UniProt P43490) | log10 IC50 | 1.88 |

Give me log10 IC50 for each of these molecules, listed below.
1. CC(C)COc1cc(F)cc(S(=O)(=O)c2ccc(CNC(=O)c3cc4ccncc4o3)cc2)c1
2. O=C(NCc1ccc(S(=O)(=O)c2ccc(C(F)(F)F)cc2C(F)(F)F)cc1)c1ccc2nccn2c1

Output:
[1.01, 2.34]

----------
- TESTED TARGET: NAMPT (Homo sapiens)
- Construct: His tag; host or cells: E. coli
- ASSAY COMMENT: Biochemical inhibition assay: NAMPT enzymatic reaction, NMN quantified by mass spectrometry
- RUN CONDITIONS: NAMPT enzymatic reaction; read-out: Biochem IC50
Values of IC50 strictly less than 7 nM map to yes, and values of at least 7 nM map to no.

Worked examples, 5 compounds total:
| MOLECULE | GROUP LABEL |
| --- | --- |
| COc1cc(F)ccc1S(=O)(=O)c1ccc(CNC(=O)c2cnc3[nH]ncc3c2)cc1 | no |
| O=C(NCc1ccc(S(=O)(=O)c2ccc(F)c(F)c2)cc1)c1cnc2[nH]ncc2c1 | no |
| Cc1ccc(Cl)c(S(=O)(=O)c2ccc(CNC(=O)c3cc4ccncc4s3)cc2)c1Cl | yes |
| CC(C)(C)c1cccc(S(=O)(=O)c2ccc(CNC(=O)c3cc4ccncc4o3)cc2)c1 | no |
| CCOc1cc(Cl)ccc1S(=O)(=O)c1ccc(CNC(=O)c2cc3ccncc3s2)cc1 | yes |

Please find the next compound below.
Input: Lab note: IC50 threshold 7 nM. Does this compound come in strictly under it? O=C(NCc1ccc(S(=O)(=O)N2CCCCC2)cc1)c1ccn2ccnc2c1
Output: no

----------
- TESTED TARGET: NAMPT (Homo sapiens, UniProt P43490)
- Construct: His tag; host or cells: E. coli
- ASSAY COMMENT: Biochemical inhibition assay: NAMPT enzymatic reaction, NMN quantified by mass spectrometry
- RUN CONDITIONS: NAMPT enzymatic assay; read-out: Biochem IC50
Answer each item with its documented IC50.
Numbers only, in µM.

| MOLECULE | UNIT NAME | IC50 |
| --- | --- | --- |
| O=C(NCc1ccc(S(=O)(=O)c2cccnc2N2CCOCC2)cc1)c1cc2ccncc2o1 | µM | 0.0325 |
| O=C(NCc1ccc(S(=O)(=O)c2cncc(F)c2)cc1)c1cc2cnccc2[nH]1 | µM | 0.0713 |
| CCOCc1ccccc1S(=O)(=O)c1ccc(CNC(=O)c2cc3ccncc3o2)cc1 | µM | 0.0133 |

Let's switch to this molecule now.
Input: Please state recorded IC50 (tested on NAMPT (Homo sapiens, UniProt P43490)) of Cc1nc(C)c(S(=O)(=O)c2ccc(CNC(=O)c3cnc4[nH]ncc4c3)cc2)s1
Output: 0.0386

----------
Answer each item with its documented IC50.
- TESTED TARGET: NAMPT (Homo sapiens)
- Construct: His tag; host or cells: E. coli
- ASSAY COMMENT: Biochemical inhibition assay: NAMPT enzymatic reaction, NMN quantified by mass spectrometry
- RUN CONDITIONS: NAMPT enzymatic assay; read-out: Biochem IC50
Answers are plain numbers, in nM.

// below: answered molecules
| MOLECULE | MEASUREMENT LABEL | MEASURED RESULT |
| --- | --- | --- |
| O=C(NCc1ccc(S(=O)(=O)c2ccc(-n3cccn3)c(F)c2)cc1)c1ccc2nccn2c1 | IC50 | 5.37 |
| Cc1cc(C)n(-c2cccc(S(=O)(=O)c3ccc(CNC(=O)c4ccc5nccn5c4)cc3)c2)n1 | IC50 | 7.2 |
| O=C(NCc1ccc(S(=O)(=O)c2cccc(-n3cccn3)c2)cc1)c1cc2ccncc2o1 | IC50 | 7.5 |
| Cc1ccncc1S(=O)(=O)c1ccc(CNC(=O)c2cc3ccncc3s2)cc1 | IC50 | 29.2 |
| O=C(NCc1ccc(S(=O)(=O)c2cnc(N3CCCC3)s2)cc1)c1cc2ccncc2s1 | IC50 | 1.5 |

Give me IC50 for each of these molecules, listed below.
1. O=C(NCc1ccc(S(=O)(=O)c2cccc(N3CCCC3)c2)cc1)c1ccc2ncsc2c1
2. Cn1ncc2c(S(=O)(=O)c3ccc(CNC(=O)c4ccc5ncsc5c4)cc3)cccc21
3. O=C(NCc1ccc(S(=O)(=O)c2cnn(-c3cccc(Cl)c3)c2)cc1)c1cc2ccncc2o1
4. O=C(NCc1ccc(S(=O)(=O)c2ccccc2CN2CCOCC2)cc1)c1cnc2[nH]ncc2c1
5. Cc1cc(C(F)(F)F)ccc1S(=O)(=O)c1ccc(CNC(=O)c2cc3ccncc3s2)cc1
6. CC(C)COc1cc(F)cc(S(=O)(=O)c2ccc(CNC(=O)c3cc4ccncc4s3)cc2)c1
7. COc1ccc(S(=O)(=O)c2ccc(CNC(=O)c3cnc4[nH]ncc4c3)cc2)c(C(F)(F)F)c1
8. O=C(NCc1ccc(S(=O)(=O)c2cncc(C(F)(F)F)c2)cc1)c1cnc2[nH]ncc2c1

Output:
1: 8.8; 2: 9.8; 3: 11.6; 4: 69.4; 5: 10.3; 6: 4.8; 7: 86.8; 8: 11

----------
Answer each item with its documented pIC50.
- TESTED TARGET: NAMPT (Homo sapiens)
- Construct: His tag; host or cells: E. coli
- ASSAY COMMENT: Biochemical inhibition assay: NAMPT enzymatic reaction, NMN quantified by mass spectrometry
- RUN CONDITIONS: NAMPT enzymatic reaction; read-out: Biochem IC50
Answers are plain numbers, as −log10 of the molar value.

| MOLECULE | pIC50 |
| --- | --- |
| COc1ccccc1S(=O)(=O)c1ccc(CNC(=O)c2cnc3nccn3c2)cc1 | 8.41 |
| CCCOc1cccc(S(=O)(=O)c2ccc(CNC(=O)c3ccc4nccn4c3)cc2)c1 | 8.38 |
| COc1cc(Cl)ccc1S(=O)(=O)c1ccc(CNC(=O)c2cc3cnccc3[nH]2)cc1 | 7.66 |

Give me pIC50 for each of these compounds, listed below.
1. Cc1ccc(S(=O)(=O)c2ccc(CNC(=O)c3cc4ccncc4s3)cc2)cc1C
2. COc1ccc(S(=O)(=O)c2ccc(CNC(=O)c3cc4ccncc4o3)cc2)cc1F
3. CCOc1ccc(S(=O)(=O)c2ccc(CNC(=O)c3cc4ccncc4s3)cc2)cc1

Output:
[8.22, 8.66, 8.68]

Give me pIC50 for each of these compounds, listed below.
1. COc1ccc(S(=O)(=O)c2ccc(CNC(=O)c3cc4ccncc4o3)cc2)cc1Cl
2. CCCCOc1ccc(S(=O)(=O)c2ccc(CNC(=O)c3cnc4nccn4c3)cc2)cc1F
3. COc1ccc(S(=O)(=O)c2ccc(CNC(=O)c3cnc4[nH]ncc4c3)cc2)cc1F
4. Cc1ccc(S(=O)(=O)c2ccc(CNC(=O)c3cc4ccncc4s3)cc2)s1

Output:
1. 8.14
2. 8.92
3. 7.37
4. 8.30
